- TARGET DESC: Chymotrypsin (Bos taurus)
Counter-ions that a name gives are not always drawn.
ENDPOINT NAME: IC50 (µM)
Please state the figure in µM; there is no need to write the unit.

Recorded results for 4 compounds are shown here.
COMPOUND: N=C(N)NC[C@H]1CC[C@H](C(=O)Oc2ccc([N+](=O)[O-])cc2)CC1 [Compound 15, hydrochloride]
TARGET DESC: Chymotrypsin (Bos taurus)
VALUE UNIT: µM
IC50: 2.8
//
COMPOUND: CC(C)(C)c1ccc(OC(=O)[C@H]2CC[C@H](CNC(=N)N)CC2)cc1 [Compound 2, hydrochloride]
TARGET DESC: Chymotrypsin (Bos taurus)
VALUE UNIT: µM
IC50: 97
//
COMPOUND: Cc1ccc(OC(=O)[C@H]2CC[C@H](CNC(=N)N)CC2)cc1 [Compound 3, hydrochloride]
TARGET DESC: Chymotrypsin (Bos taurus)
VALUE UNIT: µM
IC50: 70
//
COMPOUND: N=C(N)NC[C@H]1CC[C@H](C(=O)Oc2ccc3ccc(=O)oc3c2)CC1 [Compound 24, hydrochloride]
TARGET DESC: Chymotrypsin (Bos taurus)
VALUE UNIT: µM
IC50: 6

Query string: Any idea what IC50 was measured for N=C(N)NC[C@H]1CC[C@H](C(=O)Oc2ccccc2Cl)CC1 [Compound 5, hydrochloride] ?
Result string: 12

Query string: Query (compound): Cc1cc(OC(=O)[C@H]2CC[C@H](CNC(=N)N)CC2)c(C(C)C)cc1Cl [Compound 14, hydrochloride] ; field requested: IC50
Result string: 100

###

- MEASUREMENT PROTOCOL: Acute toxicity in rats
- CONDITION CONTEXT: rat, in vivo, po
Structures can show the parent of a compound that is named as a salt.
ENDPOINT NAME: LD50 at 168 h (mg/kg)
Number only, in mg/kg; omit the unit.

Query string: Consider the compound shown here: CC(C)(C)c1ccc(OC(=O)[C@H]2CC[C@H](CNC(=N)N)CC2)cc1 [Compound 2, hydrochloride] What is its recorded LD50 at 168 h?
Result string: 10800

###

Reported pIC50 values, Pancreas kallikrein (Sus scrofa, UniProt P00752).
Counter-ions that a name gives are not always drawn.
For clarity, pIC50 is expressed as the negative log10 of concentration in mol/L.

MOLECULE: N=C(N)NC[C@H]1CC[C@H](C(=O)Oc2ccccc2Cl)CC1 [Compound 5, hydrochloride]
TARGET DESC: Pancreas kallikrein (Sus scrofa, UniProt P00752)
Sequence (P00752 15-246 limits assumed): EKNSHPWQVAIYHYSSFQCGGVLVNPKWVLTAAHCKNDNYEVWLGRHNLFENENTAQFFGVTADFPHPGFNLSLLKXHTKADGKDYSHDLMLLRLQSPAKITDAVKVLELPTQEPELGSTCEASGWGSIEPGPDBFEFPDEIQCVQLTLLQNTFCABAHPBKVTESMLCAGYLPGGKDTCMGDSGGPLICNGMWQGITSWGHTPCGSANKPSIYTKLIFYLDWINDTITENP
RECORDED VALUE: 4.05

MOLECULE: N=C(N)NC[C@H]1CC[C@H](C(=O)Oc2ccc(Br)cc2)CC1 [Compound 6, hydrochloride]
TARGET DESC: Pancreas kallikrein (Sus scrofa, UniProt P00752)
RECORDED VALUE: 3.82

MOLECULE: CC(C)(C)c1ccc(OC(=O)[C@H]2CC[C@H](CNC(=N)N)CC2)cc1 [Compound 2, hydrochloride]
TARGET DESC: Pancreas kallikrein (Sus scrofa, UniProt P00752)
RECORDED VALUE: 4.21

Query string: pIC50 of N=C(N)NC[C@H]1CC[C@H](C(=O)Oc2ccc([N+](=O)[O-])cc2)CC1 [Compound 15, hydrochloride] on Pancreas kallikrein (Sus scrofa, UniProt P00752)?
Result string: 4.60

Query string: Which pIC50 is reported with Pancreas kallikrein (Sus scrofa, UniProt P00752) for this entry: Cc1cc(OC(=O)[C@H]2CC[C@H](CNC(=N)N)CC2)c(C(C)C)cc1Cl [Compound 14, hydrochloride] ?
Result string: 3.89

Query string: Form entry - test system: Pancreas kallikrein (Sus scrofa, UniProt P00752); read-out: pIC50; molecule: Cc1ccc(OC(=O)[C@H]2CC[C@H](CNC(=N)N)CC2)cc1 [Compound 3, hydrochloride]
Result string: 3.49

Query string: Quick check: pIC50 on Pancreas kallikrein (Sus scrofa, UniProt P00752), item N=C(N)NC[C@H]1CC[C@H](C(=O)Oc2ccc3ccc(=O)oc3c2)CC1 [Compound 24, hydrochloride] ?
Result string: 4.70

Query string: Identify the measured pIC50 of N#Cc1ccccc1OC(=O)[C@H]1CC[C@H](CNC(=N)N)CC1 [Compound 21, hydrochloride] for Pancreas kallikrein (Sus scrofa, UniProt P00752).
Result string: 4.52

###

Counter-ions that a name gives are not always drawn.
Consider compounds characterized by their IC50 with Thrombin (Homo sapiens).
Give the value, in units of µM, as a plain number.

COMPOUND: N=C(N)NC[C@H]1CC[C@H](C(=O)Oc2ccc3ccc(=O)oc3c2)CC1 [Compound 24, hydrochloride]
RECORDED VALUE: 230

COMPOUND: N=C(N)NC[C@H]1CC[C@H](C(=O)Oc2ccc([N+](=O)[O-])cc2)CC1 [Compound 15, hydrochloride]
RECORDED VALUE: 95

COMPOUND: N=C(N)NC[C@H]1CC[C@H](C(=O)Oc2ccc(Br)cc2)CC1 [Compound 6, hydrochloride]
RECORDED VALUE: 180

Query string: // lookup IC50 | system=Thrombin (Homo sapiens) | key= N=C(N)NC[C@H]1CC[C@H](C(=O)Oc2ccccc2Cl)CC1 [Compound 5, hydrochloride]
Result string: 160

Query string: Lookup: IC50 / Thrombin (Homo sapiens) / Cc1cc(OC(=O)[C@H]2CC[C@H](CNC(=N)N)CC2)c(C(C)C)cc1Cl [Compound 14, hydrochloride]
Result string: 240

Query string: Hello, I am looking for reported IC50 with Thrombin (Homo sapiens) for CC(C)(C)c1ccc(OC(=O)[C@H]2CC[C@H](CNC(=N)N)CC2)cc1 [Compound 2, hydrochloride] . Could you help?
Result string: 250

###

- Test system: guinea pigs ilea
- MEASUREMENT PROTOCOL: Anti-acetylcholine action
- Set-up: species or system guinea pig
- CONDITION CONTEXT: Cavia porcellus; final conc. 50 μg/ml; read-out: Anti-acetylcholine effect inhibition of contraction
Counter-ions that a name gives are not always drawn.
ENDPOINT NAME: inhibition at 50 µg/mL (%)
Write the number in % without appending the unit.

Query string: GET /values?readout=inhibition at 50 µg/mL&item= CC(C)(C)c1ccc(OC(=O)[C@H]2CC[C@H](CNC(=N)N)CC2)cc1 [Compound 2, hydrochloride]
Result string: 100

Query string: Which inhibition at 50 µg/mL reading was recorded for the compound N=C(N)NC[C@H]1CC[C@H](C(=O)Oc2ccc3ccccc3c2[N+](=O)[O-])CC1 [Compound 29, hydrochloride] ?
Result string: 80

Query string: State the recorded inhibition at 50 µg/mL for this entry: Cc1ccc(OC(=O)[C@H]2CC[C@H](CNC(=N)N)CC2)cc1 [Compound 3, hydrochloride]
Result string: 100

Query string: Entry under review: N=C(N)NC[C@H]1CC[C@H](C(=O)Oc2ccc(Cl)cc2)CC1 [Compound 10, hydrochloride] . Reported inhibition at 50 µg/mL?
Result string: 100

Query string: Which inhibition at 50 µg/mL is listed for N=C(N)NC[C@H]1CC[C@H](C(=O)Oc2ccc(Cl)c3ccccc23)CC1 [Compound 28, hydrochloride] ?
Result string: 76

###

- Tested on: guinea pigs ilea
- MEASUREMENT PROTOCOL: Anti-acetylcholine action
- Parameters: species or system guinea pig
- CONDITION CONTEXT: Cavia porcellus; final conc. 25 μg/ml; read-out: Anti-acetylcholine effect inhibition of contraction
- From the text: Anti-acetylcholine and anti-histamine effects of the present compounds were examined using guinea pigs ilea by the usual method.
Counter-ions that a name gives are not always drawn.
Use 90% as the dividing line for inhibition at 25 µg/mL, with the line itself on the rule met side and lower values as rule not met.

These solved cases illustrate the format of a correct answer.
COMPOUND: Cc1ccc(OC(=O)[C@H]2CC[C@H](CNC(=N)N)CC2)cc1 [Compound 3, hydrochloride]
GROUP LABEL: rule met
--
COMPOUND: CC(C)(C)c1ccc(OC(=O)[C@H]2CC[C@H](CNC(=N)N)CC2)cc1 [Compound 2, hydrochloride]
GROUP LABEL: rule met

Query string: Record N=C(N)NC[C@H]1CC[C@H](C(=O)Oc2ccc3ccccc3c2[N+](=O)[O-])CC1 [Compound 29, hydrochloride] ; criterion: inhibition at 25 µg/mL no lower than 90%. Met?
Result string: rule not met

Query string: Can N=C(N)NC[C@H]1CC[C@H](C(=O)Oc2ccc(Cl)c3ccccc23)CC1 [Compound 28, hydrochloride] be said to have inhibition at 25 µg/mL at or above 90%?
Result string: rule not met

###

- Tested on: ileum of each sensitized guinea pig
- MEASUREMENT PROTOCOL: Schultz-Dale reaction
- CONDITION CONTEXT: Cavia porcellus; final conc. 25 μg/ml; read-out: Inhibition of contraction (Schultz-Dale reaction)
Where a name gives a salt, the structure may show the parent alone.
ENDPOINT NAME: inhibition at 25 µg/mL (%)
// note: answer is a bare numeric in %

MOLECULE: N=C(N)NC[C@H]1CC[C@H](C(=O)Oc2ccc(Cl)cc2)CC1 [Compound 10, hydrochloride]
VALUE UNIT: %
RECORDED VALUE: 100
--
MOLECULE: N=C(N)NC[C@H]1CC[C@H](C(=O)Oc2ccc(Cl)c3ccccc23)CC1 [Compound 28, hydrochloride]
VALUE UNIT: %
RECORDED VALUE: 80
--
MOLECULE: Cc1ccc(OC(=O)[C@H]2CC[C@H](CNC(=N)N)CC2)cc1 [Compound 3, hydrochloride]
VALUE UNIT: %
RECORDED VALUE: 83.3

Now, please, on to the next molecule.
Query string: Bench note: what inhibition at 25 µg/mL did N=C(N)NC[C@H]1CC[C@H](C(=O)Oc2ccccc2)CC1 [Compound A, hydrochloride, reference compound] show?
Result string: 0

Origin of the recorded values: patent US4465851A
